Where do these numbers come from? They come from patent US12024503B2.

# TEST_TARGET: JAK2 (Homo sapiens)
# Construct: purchased Carna Biosciences
# Sequence (O60674 whole entry): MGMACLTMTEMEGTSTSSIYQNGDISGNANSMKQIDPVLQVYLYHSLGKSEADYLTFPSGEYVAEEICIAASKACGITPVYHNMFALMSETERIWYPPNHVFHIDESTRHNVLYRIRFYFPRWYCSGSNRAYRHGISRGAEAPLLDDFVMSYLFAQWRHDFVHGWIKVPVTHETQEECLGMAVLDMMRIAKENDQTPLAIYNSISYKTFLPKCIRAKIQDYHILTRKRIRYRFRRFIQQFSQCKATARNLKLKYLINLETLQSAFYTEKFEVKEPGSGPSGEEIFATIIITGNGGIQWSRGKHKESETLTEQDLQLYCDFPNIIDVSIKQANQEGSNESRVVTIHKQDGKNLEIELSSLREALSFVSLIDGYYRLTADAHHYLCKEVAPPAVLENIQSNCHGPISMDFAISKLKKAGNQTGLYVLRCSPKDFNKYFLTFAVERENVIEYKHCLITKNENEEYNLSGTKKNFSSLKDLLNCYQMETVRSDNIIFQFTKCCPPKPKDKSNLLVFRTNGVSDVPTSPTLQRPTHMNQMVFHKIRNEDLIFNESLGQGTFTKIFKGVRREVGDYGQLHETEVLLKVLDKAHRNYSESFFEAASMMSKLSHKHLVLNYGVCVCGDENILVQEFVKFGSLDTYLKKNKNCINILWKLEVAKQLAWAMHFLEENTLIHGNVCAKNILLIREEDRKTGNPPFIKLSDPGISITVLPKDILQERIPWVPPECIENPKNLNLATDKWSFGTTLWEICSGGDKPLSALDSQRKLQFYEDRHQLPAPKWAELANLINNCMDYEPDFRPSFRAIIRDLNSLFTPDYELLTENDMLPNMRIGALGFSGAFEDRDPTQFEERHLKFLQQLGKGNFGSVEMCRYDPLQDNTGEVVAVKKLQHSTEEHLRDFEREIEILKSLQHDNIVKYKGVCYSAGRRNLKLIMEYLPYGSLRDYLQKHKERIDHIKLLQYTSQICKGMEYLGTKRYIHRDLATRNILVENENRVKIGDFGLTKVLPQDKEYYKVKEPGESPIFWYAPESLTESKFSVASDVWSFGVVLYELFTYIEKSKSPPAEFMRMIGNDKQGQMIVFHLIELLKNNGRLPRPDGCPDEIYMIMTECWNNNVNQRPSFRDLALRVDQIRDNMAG
# EXPERIMENT_NOTES: JAK2 microfluidic kinase assay (Caliper EZ Reader II, FAM labeled peptide substrate)
# Type: biochemical
# STUDY_CONDITIONS: (0.25 nM), 1 mM ATP; Table 2; read-out: IC50 JAK2 (0.25 nM) (1 mM ATP)
RECORDED_ENDPOINT: IC50 (nM)

Some molecules with known IC50 results, for comparison:
Cc1cnc(Nc2cnn(C3CCN(C)CC3)c2)nc1-c1ccc(OCC2(C#N)CC2)c(F)c1    0.251
Cc1cnc(Nc2cnn(C(C)C(F)(F)F)c2)nc1-c1ccc(OCC(C)(C)C#N)c(F)c1 (centres unmarked)    0.654
CN(CC(C)(C)C#N)c1ccc(-c2nc(Nc3cnn(C4CC4)c3)ncc2Cl)cc1F    4.6
Cc1cnc(Nc2cnn(C)c2)nc1-c1ccc(OCCC#N)c(F)c1    32.3
Cc1cnc(Nc2cnn(C3CC3)c2)nc1-c1ccc2c(c1)CC(C#N)CO2 (centres unmarked)    58.8

A: Cc1cnc(Nc2cnn(C)c2)nc1-c1ccc(OCCC#N)cc1
B: CC(C)(C#N)COc1ccc(-c2nc(Nc3cnn(C4CC4)c3)ncc2Cl)cc1
Between item A and item B , which reported IC50 is smaller? Refer to your chosen entry by its label in the reply.
B
